tested on: NCI-H929 complex spheroids, viability % test/control; test: Anticancer human tumor NCI-H929 cell line growth inhibition [RAS]; conditions: second compound 0.3 µM; first compound 0.00949 µM; hits give low values;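 note: compound exposure lasted seven days before viability was read; 100% = DMSO vehicle control viability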
Measured viability, T/C, listed per entry for reference.

| molecule | test-system | viability, T/C |
| --- | --- | --- |
| CCc1c2c(nc3ccc(O)cc13)-c1cc3c(c(=O)n1C2)COC(=O)[C@]3(O)CC + CCn1c(-c2cc(N3CCN(C)CC3)cnc2C(C)OC)c2c3cc(ccc31)-c1csc(n1)CC(NC(=O)C1CC1C)C(=O)N1CCCC(N1)C(=O)OCC(C)(C)C2 | NCI-H929 complex spheroids, viability % test/control | 0.57% |
| CCc1c2c(nc3ccc(O)cc13)-c1cc3c(c(=O)n1C2)COC(=O)[C@]3(O)CC + CCn1c(-c2cccnc2C(C)OC)c2c3cc(ccc31)N1CCOC(CC(NC(=O)C(C(C)C)N(C)C(=O)C3(F)CCN(C(=O)C#CC(C)(C)N(C)C)CC3)C(=O)N3CCCC(N3)C(=O)OCC(C)(C)C2)C1 | NCI-H929 complex spheroids, viability % test/control | 0.75% |
| CC1(C)CCC(Nc2ncc(C(F)(F)F)c(-c3c[nH]c4c(P(C)(C)=O)c(C#N)ccc34)n2)CN1 (centres undefined) + CCn1c(-c2cc(N3CCN(C)CC3)cnc2C(C)OC)c2c3cc(ccc31)-c1csc(n1)CC(NC(=O)C1CC1C)C(=O)N1CCCC(N1)C(=O)OCC(C)(C)C2 | NCI-H929 complex spheroids, viability % test/control | 0.85% |
| CC1(C)CCC(Nc2ncc(C(F)(F)F)c(-c3c[nH]c4c(P(C)(C)=O)c(C#N)ccc34)n2)CN1 (centres undefined) + CCn1c(-c2cccnc2C(C)OC)c2c3cc(ccc31)N1CCOC(CC(NC(=O)C(C(C)C)N(C)C(=O)C3(F)CCN(C(=O)C#CC(C)(C)N(C)C)CC3)C(=O)N3CCCC(N3)C(=O)OCC(C)(C)C2)C1 | NCI-H929 complex spheroids, viability % test/control | 2.85% |
